- tested.on: Hck (UniProt P08631)
- Sequence (P08631 whole entry, looked up): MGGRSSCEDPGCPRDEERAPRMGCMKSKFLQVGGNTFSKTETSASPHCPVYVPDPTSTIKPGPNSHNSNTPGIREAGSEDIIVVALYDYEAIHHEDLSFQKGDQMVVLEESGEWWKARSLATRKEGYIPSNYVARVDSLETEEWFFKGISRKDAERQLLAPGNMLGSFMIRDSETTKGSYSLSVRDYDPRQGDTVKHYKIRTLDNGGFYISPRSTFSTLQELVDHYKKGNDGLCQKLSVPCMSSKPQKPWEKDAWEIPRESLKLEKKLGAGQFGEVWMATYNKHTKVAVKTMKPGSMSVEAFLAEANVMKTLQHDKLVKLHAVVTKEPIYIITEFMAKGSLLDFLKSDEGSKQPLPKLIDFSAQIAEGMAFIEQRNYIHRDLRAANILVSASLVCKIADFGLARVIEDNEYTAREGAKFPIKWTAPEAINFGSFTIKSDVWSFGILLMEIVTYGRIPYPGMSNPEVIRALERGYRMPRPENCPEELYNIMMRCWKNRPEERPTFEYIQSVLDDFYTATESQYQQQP
- experimental.protocol: phosphorylation enrichment, bacterial display (enrichment ratio); higher = better substrate or ligand; peptides without Tyr show the background;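 also: 11-residue human phosphosite peptides and single-mutation variants displayed on the E. coli surface, counted by deep sequencing, each peptide's frequency after selection divided by its frequency in the unselected input library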;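 also: frequency after pTyr selection over input frequency; kinase dosed for 20-30% of maximal phosphorylation in three min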
quantity: phosphorylation enrichment
Reply with just the number.

Problem: Look up phosphorylation enrichment: FEPWVYSFSYE [PRKDC_Y647]
Solution: 2.94

Problem: Same thing, different sequence: ATGMEYLASQK [FGFR2_Y616_R612T]
Solution: 0.474

Problem: Same thing, different sequence: QQLQGYIPSNF [FRK_Y99_YF]
Solution: 0.647

----------
Examples of sequences with documented phosphorylation enrichment follow.
- tested.on: MERTK (UniProt Q12866)
- Sequence (Q12866 whole entry, looked up): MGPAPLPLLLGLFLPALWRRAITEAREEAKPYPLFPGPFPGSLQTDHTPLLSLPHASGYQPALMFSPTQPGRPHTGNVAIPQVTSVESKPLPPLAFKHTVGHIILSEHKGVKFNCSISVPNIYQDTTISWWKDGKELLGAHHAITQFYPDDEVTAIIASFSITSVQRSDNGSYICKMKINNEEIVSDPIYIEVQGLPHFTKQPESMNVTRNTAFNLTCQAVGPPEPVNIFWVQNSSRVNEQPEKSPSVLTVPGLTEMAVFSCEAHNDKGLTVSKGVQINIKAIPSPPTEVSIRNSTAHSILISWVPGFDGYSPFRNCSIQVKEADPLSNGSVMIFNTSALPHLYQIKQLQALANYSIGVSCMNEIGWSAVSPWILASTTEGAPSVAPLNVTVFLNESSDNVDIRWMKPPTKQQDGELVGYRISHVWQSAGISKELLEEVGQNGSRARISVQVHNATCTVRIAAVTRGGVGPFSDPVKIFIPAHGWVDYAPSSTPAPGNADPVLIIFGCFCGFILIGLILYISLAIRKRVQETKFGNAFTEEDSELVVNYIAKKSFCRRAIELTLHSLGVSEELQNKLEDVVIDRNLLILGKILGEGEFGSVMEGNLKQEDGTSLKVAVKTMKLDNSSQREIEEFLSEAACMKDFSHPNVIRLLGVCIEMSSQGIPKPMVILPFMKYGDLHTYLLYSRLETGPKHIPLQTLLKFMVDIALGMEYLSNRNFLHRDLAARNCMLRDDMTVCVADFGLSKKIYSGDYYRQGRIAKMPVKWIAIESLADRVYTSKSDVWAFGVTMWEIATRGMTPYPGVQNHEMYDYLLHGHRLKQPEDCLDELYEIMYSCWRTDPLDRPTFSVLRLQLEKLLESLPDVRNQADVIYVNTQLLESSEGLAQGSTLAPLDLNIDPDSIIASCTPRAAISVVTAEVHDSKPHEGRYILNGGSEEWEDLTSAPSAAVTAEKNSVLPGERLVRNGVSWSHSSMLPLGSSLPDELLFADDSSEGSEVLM
- experimental.protocol: phosphorylation enrichment, bacterial display (enrichment ratio); higher = better substrate or ligand; peptides without Tyr show the background
Reply with just the number.

>  <chain.sequence>
LAGRFYALRSM [CKB_Y174_K177R_YF]

>  <phosphorylation enrichment>
0.509

$$$$

Problem: Look up phosphorylation enrichment: VLALWYFFLTN [ZDHHC23_Y127_H132N_YF]
Solution: 0.963

Problem: Same thing, different sequence: CTTIHYNFMCN [TP53_Y234_Y236F]
Solution: 0.405

Problem: Same thing, different sequence: ICTVDYLLRLQ [RYR1_Y3921]
Solution: 0.428

Problem: Same thing, different sequence: MPAVTYTLAMR [MEGF10_Y895_P897L]
Solution: 0.437

Problem: Same thing, different sequence: AAGGRYFGLVG [HARS1_Y363_D364Y_YF]
Solution: 0.395

Problem: Same thing, different sequence: YSQNICIQNRN [PKP2_Y631_Y631C]
Solution: 0.49

Problem: Same thing, different sequence: TGEDWYVLVRV [SF3B3_Y904_G908R]
Solution: 0.364

Problem: Same thing, different sequence: QEALEYFMKQT [PIK3CA_Y1038_M1043T]
Solution: 0.813

Problem: Same thing, different sequence: QPEDIYHQTWA [GBA_Y244_G241E]
Solution: 3.42

Problem: Same thing, different sequence: ADARMCGVLPW [PLP1_Y207_Y207C]
Solution: 0.436

Problem: Same thing, different sequence: AALLNYKAGRD [GRIN2A_Y737_V734L]
Solution: 0.468

Problem: Same thing, different sequence: RKETFYTLSCR [GUCY2C_Y681]
Solution: 6.83

Problem: Same thing, different sequence: ELELLYPDRNS [NYX_Y284_L285P]
Solution: 0.433

Problem: Same thing, different sequence: RNGDRYFKGIV [DCX_Y64]
Solution: 0.433

----------
- Test system: c-Abl (mouse)
- experimental.protocol: phosphorylation enrichment, bacterial display (enrichment ratio); higher = better substrate or ligand; peptides without Tyr show the background
phosphorylation enrichment vs 0.8: at or above is MET, below is NOT MET.

Would you please look over these solved cases?
>  <chain.sequence>
MFNPCYGLFEF [NEDD4L_Y680_Y679C_YF]

>  <category>
MET

$$$$
>  <chain.sequence>
CSRHFYQLTKL [AR_Y858_R856H]

>  <category>
NOT MET

$$$$
>  <chain.sequence>
MIRSTYALGGL [CPS1_Y590_A589T]

>  <category>
NOT MET

$$$$

Problem: Entry HLVSEYQQYQD [TUBB3_Y422_D417H] : is its phosphorylation enrichment no less than 0.8?
Solution: MET

Problem: Same thing, different sequence: LGGSPYPSVPV [FGFR1_Y701_G703S]
Solution: NOT MET

Problem: Same thing, different sequence: YIATQYSLRPR [LBR_Y166]
Solution: NOT MET

Problem: Same thing, different sequence: MPAVTYTLAMR [MEGF10_Y895_P897L]
Solution: NOT MET
